System: symmetric dimethylation of arginine (SDMA) of PRMT5 substrates in MCF-7 cells
Experiment: PRMT5 Cell Target Engagement (TE) Assay
Type: cell-based
Conditions: Homo sapiens, MCF7, 72 h; MCF-7 cells treated for 3 days; nuclear SDMA by high content imaging; top concentration 10000 nM
pEC50: −log10 of the molar value.
Label rule, in plain words: pEC50 of 9 and up is 1 (yes), under 9 is 0 (no).

> print(dat)
                         chemical.structure  label.class
1  Cc1ncnc2c1ccn2[C@@H]1O[C@@H]2[C@@H](Oc3ccc4cc(Br)c(N)nc4c3)CC[C@]2(O)[C@H]1O       0 (no)

Incoming: Given the entry `C[C@]1(CCc2ccc3cc(Br)c(N)nc3c2)C[C@@H](n2ccc3c(N)ncnc32)[C@H](O)[C@@H]1O` , answer whether its pEC50 meets or surpasses 9.
Outgoing: 1 (yes)

Incoming: Given the entry `C[C@@]1(O)[C@@H](COc2ccc3cccnc3c2)O[C@@H](n2ccc3c(N)ncnc32)[C@@H]1O` , answer whether its pEC50 meets or surpasses 9.
Outgoing: 0 (no)

Incoming: Given the entry `Nc1nc2cc(C[C@@H]3CC[C@@]4(O)[C@@H]3O[C@@H](n3ccc5c(N)ncnc53)[C@@H]4O)cc(F)c2cc1Cl` , answer whether its pEC50 meets or surpasses 9.
Outgoing: 1 (yes)

Incoming: Given the entry `COc1ncnc2c1ccn2[C@@H]1O[C@](C)(COc2ccc3cc(Br)c(N)nc3c2)[C@@H](O)[C@H]1O` , answer whether its pEC50 meets or surpasses 9.
Outgoing: 0 (no)
